# assay_notes: Solubility study of Form A in buffers, water and biorelevant media (suspension shaken 24 hours at 25° C., filtrate by UPLC)
# Assay type: physicochemical
# assay_context: pH 7.0 buffer, 25 °C, pH 7, aqueous buffer, thermodynamic from solid, about 24 hours, mean ± spread of three replicates

compound: Cc1cc(N2CC3CCC(C2)C3Nc2nc3n(n2)CCCC[C@H]3c2ccc(F)c(F)c2F)ncn1 (stereo partly shown) [Form A]
unit_string: µg/mL
solubility at 24 h: 6
